Below, each entry is listed with its recorded Mouse(%) parent compound remaining.
assay.name: Microsome stability evaluation
Format: in vitro ADME, mouse
run.conditions: after 30 minutes, 1 μM compound, 0.3 mg/ml microsomal protein, 1 mM NADPH
// units = %; emit number, no label

Record summary for O=C(NCc1ccc(-c2nc3cc4ccccc4cc3o2)cc1)c1cccnc1 : reported Mouse(%) parent compound remaining = 78.24

Given item O=C(/C=C/c1cccnc1)NCCCCC1CCN(C(=O)c2ccccc2)CC1 , the value recorded as its Mouse(%) parent compound remaining is 10.26

For O=C(NCc1ccc(-c2nc3ccc(Cl)cc3o2)cc1)c1cccnc1 the molecule record lists Mouse(%) parent compound remaining as 89.3

Mouse(%) parent compound remaining recorded for this molecule, O=C1CC2(CCCC2)CC(=O)N1CCCCN1CCN(c2ncccn2)CC1 [Buspirone, reference compound] , is 3.189

###

assay.name: Microsome stability evaluation
Format: in vitro ADME, human
run.conditions: after 30 minutes, 1 μM compound, 0.3 mg/ml microsomal protein, 1 mM NADPH
Some compounds, each annotated with its measured Human(%) parent compound remaining.
Report the figure in % without appending any unit label.

{"columns": ["compound", "result.value"],
 "data": [
  ["O=C(/C=C/c1cccnc1)NCCCCC1CCN(C(=O)c2ccccc2)CC1 [FK866]", 25.48],
  ["O=C1CC2(CCCC2)CC(=O)N1CCCCN1CCN(c2ncccn2)CC1 [Buspirone, reference compound]", 0.101]
]}

// below: Human(%) parent compound remaining requested for another compound
Field Human(%) parent compound remaining (entry O=C(NCc1ccc(-c2nc3cc4ccccc4cc3o2)cc1)c1cccnc1 [A4265] ) reads 81.11

###

The molecules listed here are annotated with their inhibition at 10 µM.
study.target: hERG channel (Homo sapiens)
Sequence (Q12809 whole entry): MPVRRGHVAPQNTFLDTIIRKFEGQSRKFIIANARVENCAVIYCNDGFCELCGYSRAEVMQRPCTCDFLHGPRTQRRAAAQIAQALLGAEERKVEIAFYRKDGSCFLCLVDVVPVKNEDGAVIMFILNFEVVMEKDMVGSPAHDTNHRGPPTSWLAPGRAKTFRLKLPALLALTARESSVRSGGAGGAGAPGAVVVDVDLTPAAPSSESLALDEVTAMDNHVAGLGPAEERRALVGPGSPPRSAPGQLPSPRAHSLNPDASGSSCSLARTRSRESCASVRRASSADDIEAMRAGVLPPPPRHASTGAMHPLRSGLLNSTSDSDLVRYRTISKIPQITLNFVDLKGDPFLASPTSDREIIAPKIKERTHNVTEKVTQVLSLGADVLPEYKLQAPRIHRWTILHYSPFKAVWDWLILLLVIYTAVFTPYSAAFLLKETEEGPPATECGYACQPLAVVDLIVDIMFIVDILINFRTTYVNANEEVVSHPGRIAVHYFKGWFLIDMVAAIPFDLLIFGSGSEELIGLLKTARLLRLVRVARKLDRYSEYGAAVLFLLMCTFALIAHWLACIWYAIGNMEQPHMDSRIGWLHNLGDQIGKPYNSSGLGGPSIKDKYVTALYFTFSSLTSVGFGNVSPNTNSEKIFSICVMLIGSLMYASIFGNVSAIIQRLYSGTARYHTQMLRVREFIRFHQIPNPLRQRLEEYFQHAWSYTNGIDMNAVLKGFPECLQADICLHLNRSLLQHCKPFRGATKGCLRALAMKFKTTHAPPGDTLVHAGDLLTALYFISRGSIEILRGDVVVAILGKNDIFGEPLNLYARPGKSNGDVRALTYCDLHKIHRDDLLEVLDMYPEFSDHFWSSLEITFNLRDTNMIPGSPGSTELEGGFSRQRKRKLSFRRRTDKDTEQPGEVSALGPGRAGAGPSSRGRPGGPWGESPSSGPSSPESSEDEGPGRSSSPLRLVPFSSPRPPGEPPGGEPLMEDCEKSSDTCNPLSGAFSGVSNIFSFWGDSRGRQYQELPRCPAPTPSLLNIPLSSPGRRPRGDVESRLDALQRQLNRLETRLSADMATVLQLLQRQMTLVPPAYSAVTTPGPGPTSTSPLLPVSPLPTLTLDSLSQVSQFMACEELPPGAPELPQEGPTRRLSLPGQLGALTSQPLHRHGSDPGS
assay.name: hERG screening by fluorescence polarization with red fluorescent hERG channel ligand tracer
Type: binding
run.conditions: probe high affinity red fluorescent hERG channel ligand tracer, mean±standard deviation, read-out: % inhibition capacity

{"columns": ["molecule", "study.target", "result.value"],
 "data": [
  ["O=C(NCc1ccc(-c2nc3ccc(Cl)cc3o2)cc1)c1cccnc1 [A4266]", "hERG channel (Homo sapiens)", "< 1%"]
]}

Field inhibition at 10 µM (hERG channel (Homo sapiens)), entry O=C(NCc1ccc(-c2nc3cc4ccccc4cc3o2)cc1)c1cccnc1 [A4265] : 7.44%

###

study.target: hERG K+ channel (Homo sapiens, UniProt Q12809)
assay.name: hERG K+ channel activity evaluation, patch clamp
experimental.endpoint: IC50

{"columns": ["molecule", "result.value"],
 "data": [
  ["O=C(NCc1ccc(-c2nc3ccc(Cl)cc3o2)cc1)c1cccnc1 [A4266]", "> 100 µM"]
]}

Attention now turns to another entry.
// sample O=C(NCc1ccc(-c2nc3cc4ccccc4cc3o2)cc1)c1cccnc1 [A4265] , its IC50 was > 100 µM
